B1: TPR 5TU (parent)
chain: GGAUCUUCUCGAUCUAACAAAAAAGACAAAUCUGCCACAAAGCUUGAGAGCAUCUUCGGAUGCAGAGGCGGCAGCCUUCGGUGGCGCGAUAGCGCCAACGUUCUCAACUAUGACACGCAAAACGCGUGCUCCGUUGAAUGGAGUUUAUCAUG

- Variants of: B1
- PROTOCOL_DETAILS: polymerase ribozyme fitness, log enrichment relative to wild type (log ratio); higher = more active; in vitro selection for triplet polymerase activity
Fewer inactive variants are shown than the library holds.
Quick list: polymerase ribozyme fitness (log ratio) per entry.
READOUT_TYPE: polymerase ribozyme fitness (log ratio)

                                   mut  value_reported
0                U56A G59A A113C G152U          ≤ -4.2
1  A3C U6A C35A C95U U102C C103G G143U          ≤ -4.2
2        C8A C10U C75A G86A A98U A138C          ≤ -4.2
